kon overview
# measurement.target: T1, serum resistance-associated protein (SRA) from Trypanosoma brucei rhodesiense, recombinant SRA (SEQ ID NO: … (Trypanosoma brucei rhodesiense, UniProt O96637 31-274))
# T1 construct: also called SRA protein
# T1 sequence: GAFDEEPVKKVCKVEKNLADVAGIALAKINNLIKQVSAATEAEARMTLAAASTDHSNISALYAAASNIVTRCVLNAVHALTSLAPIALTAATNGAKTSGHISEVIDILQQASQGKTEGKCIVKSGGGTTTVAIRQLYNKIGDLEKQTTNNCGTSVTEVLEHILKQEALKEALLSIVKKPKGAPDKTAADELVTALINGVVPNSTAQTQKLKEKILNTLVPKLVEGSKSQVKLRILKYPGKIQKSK
# assay.comment: SPR, mAb captured, 25C, pH 7.4
Report the figure in M⁻¹ s⁻¹ without appending any unit label.

Below, each entry is followed by its recorded kon result.
H1H10064P (antibody, V domains shown, Fully human antibody with human IgG1 Fc (prefix H1H)) VH: QVQLVQSGAEVKKPGSSVKVSCKASGGSFSSNVFSWVRQAPGQGLEWMGGIIPIFGSANYAQKFQGRVTITTDESTTTAYMELSSLRSEDTAVYYCAIGGTGPSGYNWNYGAFYIWGQGTMVTVSS VL: DIQMTQSPSSLSASVGDRVTITCRASQGIRNDLGWYQQKPGIAPKRLIYAASSLQSGVPSRFSGSGSGTEFTLTISSLQPEDFATYYCLQHNSYPYTFGQGTKLEIK = 1.6e+06
H1H10026P (antibody, V domains shown, Fully human antibody with human IgG1 Fc (prefix H1H)) VH: QVQLVESGGGVVQPGRSLRLSCEASGFTFSIYGMHWVRQAPGKGLEWVAVISYDGTNRYYADSVKGRFTISRDNSKNTLYLQMNSLRAEDTAVYYCAKVNIWNFLFDYWGQGTLVTVSS VL: EIVLTQSPGTLSLSPGERATLSCRASQSVSGNYLAWYQQKPGQAPRLLIYGPSSRATGIPDRFSGSGSGTDFTLTISRLEPEDFAVYYCQQYGTSLTFGGGTKVEIK = 614000

Suppose we examine the binder H1H10061P (antibody, V domains shown, Fully human antibody with human IgG1 Fc (prefix H1H)) VH: QVQLVESGGGVVQPGNSLRLSCAASGFTFSAYGMHWVRQAPGKGLEWVAVISYDGSNEFYADSVKGRFTIFRDNSKNMLYLQMNSLRVEDTSIYYCAKDRGLGVYYFFYGMDVWGQGTTVTVSS VL: DIVMTQSPDSLVVSLGERATINCKSSQSLLYSSSNNNYLTWYQQKPGRPPKLLIYWASTRESGVPDRFSGSGSGTDFTLTISSLQAEDVAIYYCQQNYITPLTFGGGTKVEIK ; what kon value has been reported?
1.62e+06
